assay target: cathepsin F (Homo sapiens (Human), UniProt Q9UBX1)
Sequence (Q9UBX1 271-484): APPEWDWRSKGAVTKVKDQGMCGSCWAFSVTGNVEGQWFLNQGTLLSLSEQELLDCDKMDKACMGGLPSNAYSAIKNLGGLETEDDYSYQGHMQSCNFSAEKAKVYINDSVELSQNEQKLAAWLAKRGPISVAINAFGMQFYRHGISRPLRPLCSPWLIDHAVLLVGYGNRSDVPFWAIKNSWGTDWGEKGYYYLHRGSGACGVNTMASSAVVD
experiment description: Cathepsin F inhibition assay
Type: biochemical
condition description: Table 4; read-out: IC50 (nM) CatF
I'd be grateful if you could share measured IC50 for these entries.

Item COC(C)(C)C(=O)NC(CCCCN)C(=O)COC(C(F)(F)F)C(F)(F)F (stereo not drawn) [Compound 69a] with cathepsin F (Homo sapiens (Human), UniProt Q9UBX1) - IC50?
> 10000 nM

Same again, this time with NCCCC[C@H](NC(=O)C1CCCC1)C(=O)COc1c(F)ccc(F)c1F
6100 nM

Same again, this time with NCCCCC(NC(=O)c1ccccn1)C(=O)COc1c(F)ccc(F)c1F (stereo not drawn) [Compound 50a]
> 10000 nM

Same again, this time with NCCCCC(NC(=O)C1CCCC1)C(=O)COC(C(F)(F)F)C(F)(F)F (stereo not drawn) [Compound 18a]
> 10000 nM

Same again, this time with COC(C)(C)C(=O)NC(CCCCN)C(=O)COc1c(F)ccc(F)c1F (stereo not drawn) [Compound 47a]
> 10000 nM

Same again, this time with NCCCC[C@H](NC(=O)C1CCCC1)C(=O)COc1c(F)c(F)cc(F)c1F (stereo in doubt) [Compound 73, reference compound]
500 nM
